Cited source for all entries: patent US9096591B2

# Lookup of reported Inhibition of ligand binding, Ser. 5-HT2C keyed by entry
Biological target: human recombinant serotonin (5-Hydroxytryptamine) 5-HT2C receptor (Homo sapiens, UniProt P28335)
Construct: expressed in transfected cells; host or cells: CHO-K1 cells
Sequence (P28335 33-458): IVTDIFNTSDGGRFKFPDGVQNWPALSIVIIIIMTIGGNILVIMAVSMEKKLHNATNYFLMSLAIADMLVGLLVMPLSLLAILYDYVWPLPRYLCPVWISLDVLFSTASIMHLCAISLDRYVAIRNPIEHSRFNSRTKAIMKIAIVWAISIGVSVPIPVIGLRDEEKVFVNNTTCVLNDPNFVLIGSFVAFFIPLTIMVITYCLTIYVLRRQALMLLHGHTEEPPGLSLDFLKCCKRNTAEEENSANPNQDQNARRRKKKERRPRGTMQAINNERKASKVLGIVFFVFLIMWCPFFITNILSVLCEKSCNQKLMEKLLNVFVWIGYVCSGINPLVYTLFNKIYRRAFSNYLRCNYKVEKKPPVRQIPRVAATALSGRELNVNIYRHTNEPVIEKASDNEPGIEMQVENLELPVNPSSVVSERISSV
Experiment: Serotonin 5-HT2C radioligand binding ([3H]Mesulergine)
Settings: percent inhibition of specific binding
Readout type: Inhibition of ligand binding, Ser. 5-HT2C (%)

> print(dat)
                                   compound  units.of.measure  recorded.result
1          CN1CCc2c(c3ccccc3n2CCc2ccncc2)C1                 %               53
2  Cc1ccc2c(n1)c1c(n2CCc2ccc(C(F)(F)F)nc2)CCN(C)C1                 %              −15
3  CN1CCc2c(c3cc(Cl)ccc3n2CCCc2ccc(C(F)(F)F)nc2)C1                 %               57
4      CN1CCc2c(c3cc(Cl)ccc3n2CCc2cccnc2)C1                 %               87
5  OC1CCC(N2CCc3c(c4cc(Cl)ccc4n3CCc3ccc(C(F)(F)F)nc3)C2)C1 (centres unmarked)                 %               26

====

Target: human recombinant adrenergic α1D receptor (Homo sapiens, UniProt P25100)
Construct: expressed in transfected cells; host or cells: HEK-293 cells
Sequence (P25100 whole entry): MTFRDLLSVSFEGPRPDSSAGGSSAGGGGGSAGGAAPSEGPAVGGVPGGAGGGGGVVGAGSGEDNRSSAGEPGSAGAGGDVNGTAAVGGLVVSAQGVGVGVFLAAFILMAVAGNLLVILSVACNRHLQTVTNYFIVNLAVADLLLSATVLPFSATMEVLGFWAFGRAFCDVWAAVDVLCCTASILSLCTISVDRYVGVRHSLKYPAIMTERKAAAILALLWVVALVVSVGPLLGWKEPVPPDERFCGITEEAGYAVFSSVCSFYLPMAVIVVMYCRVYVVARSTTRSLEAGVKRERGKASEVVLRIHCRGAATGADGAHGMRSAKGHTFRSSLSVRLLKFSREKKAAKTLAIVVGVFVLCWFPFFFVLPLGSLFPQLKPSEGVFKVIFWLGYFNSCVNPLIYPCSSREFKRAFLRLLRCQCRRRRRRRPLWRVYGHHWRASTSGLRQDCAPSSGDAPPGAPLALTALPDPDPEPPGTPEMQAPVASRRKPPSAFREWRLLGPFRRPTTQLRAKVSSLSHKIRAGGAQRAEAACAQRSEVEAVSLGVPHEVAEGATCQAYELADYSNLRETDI
Assay: Adrenergic α1D radioligand binding ([3H]Prozosin)
Design: concentration or dose not given beside the values
Details: percent inhibition of specific binding
Description: Compounds of invention were incubated with 0.6 nM [^3H]Prozosin for 60 minutes at 25° C. Non-specific binding was estimated in the presence of 10 μM phentolamine. Receptor proteins were filtered and washed, the filters were then counted to determine [^3H]Prozosin specifically bound. […] Biochemical assay results are presented as the percent inhibition of specific binding in Table 6.
Threshold check on Inhibition of ligand binding, Adren. alpha1D: at or above 70% gives satisfied, strictly below gives not satisfied.

> print(dat)
                                   compound       category
1  COc1ccc(CCn2c3c(c4cc(C)ccc42)CN(C)CC3)cc1      satisfied
2  Cc1ccc2c(c1)c1c(n2CCc2ccccc2)CC(O)N(C)C1=O (stereo not drawn)  not satisfied
3  Cc1ccc2c(c1)c1c(n2CCc2ccc(CO)nc2)CCN(C)C1      satisfied
4    CCN1CCc2c(c3cc(C)ccc3n2Cc2ccc(C)nc2)C1  not satisfied
5      CN1CCc2c(c3cccc(Cl)c3n2CCc2ccccc2)C1      satisfied

====

biological target: human recombinant serotonin (5-Hydroxytryptamine) 5-HT2C receptor (Homo sapiens); construct: expressed in transfected cells; host or cells: CHO-K1 cells; assay: Serotonin 5-HT2C radioligand binding ([3H]Mesulergine); design: concentration or dose not given beside the values; conditions: percent inhibition of specific binding
Readout type: Inhibition of ligand binding, Ser. 5-HT2C (%)

> print(dat)
                                   compound  recorded.result
1  CCN1CCc2c(c3cc(C)ccc3n2Cc2ccccc2)C1 [Compound 140]              −10
2  Cc1ncc(CCn2c3c(c4cc(C(C)C)ccc42)CN(C)CC3)cn1 [Compound 370]               40
3  CC(C)c1ccc(CCn2c3c(c4cc(Cl)ccc42)CN(C)CC3)cn1 [Compound 372]               77
4  Cc1ccc2c(c1)c1c(n2CCc2cncc(Cl)c2)CCN(C)C1 [Compound 443]               95
5  CN1CCc2c(c3cc(Cl)ccc3n2CCc2ccncc2)C1 [Compound 56]               87
6  Cc1ccc2c(c1)c1c(n2Cc2ccccc2)CCN(C)C1 [Compound 137]               10
7  Cc1ccc2c(c1)c1c(n2CCC2CCCCC2)CCN(C)C1 [Compound 163]               99
8  Cc1ccc2c(c1)c1c(n2CCC(=O)N2CCC(N)CC2)CCN(C)C1 [Compound 231]               49
9  COc1ccc(CCn2c3c(c4cc(Cl)ccc42)CN(C)CC3)cc1 [Compound 336]               99

====

molecular target: human recombinant serotonin (5-Hydroxytryptamine) 5-HT2A receptor (Homo sapiens); construct: expressed in transfected cells; host or cells: CHO-K1 cells; test: Serotonin 5-HT2A radioligand binding ([3H]Ketanserin); conditions: read-out: Inhibition of ligand binding, Ser. 5-HT2A (percent inhibition of specific binding)
Sequence (P28223 whole entry): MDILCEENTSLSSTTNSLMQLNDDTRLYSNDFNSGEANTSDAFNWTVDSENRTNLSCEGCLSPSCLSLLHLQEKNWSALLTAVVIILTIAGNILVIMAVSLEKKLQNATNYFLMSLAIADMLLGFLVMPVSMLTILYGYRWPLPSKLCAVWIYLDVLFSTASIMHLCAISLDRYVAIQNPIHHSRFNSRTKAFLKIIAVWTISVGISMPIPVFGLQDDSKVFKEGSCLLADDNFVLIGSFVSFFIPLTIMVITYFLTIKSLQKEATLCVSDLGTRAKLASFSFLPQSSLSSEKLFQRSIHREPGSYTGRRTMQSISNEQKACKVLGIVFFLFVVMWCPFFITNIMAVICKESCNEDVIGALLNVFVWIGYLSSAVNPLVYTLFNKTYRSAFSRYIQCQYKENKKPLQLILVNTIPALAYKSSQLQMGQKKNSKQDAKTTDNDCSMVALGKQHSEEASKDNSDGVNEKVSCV
Measured inhibition at 1 µM, listed per entry for reference.
Readout type: inhibition at 1 µM (%)

> print(dat)
                                    compound  units.of.measure  recorded.result
 1  CN1CCc2c(c3ccccc3n2CCc2noc(-c3ccccc3)n2)C1 [Compound C4-1]                 %               96
 2  CN1CCc2c(c3cc(I)ccc3n2CC(=O)N2CCCCC2)C1 [Compound 486]                 %               19
 3  COc1ccc2c(c1)c1c(n2CCc2nc(-c3ccccc3)cs2)CCN(C)C1 [Compound C1-6]                 %               84
 4  Cc1ccc2c(c1)c1c(n2CCc2nc(-c3ccccc3)cs2)CCN(C)C1 [Compound C1-5]                 %               97
 5  Cc1ccc(CCn2c3c(c4cc(Br)ccc42)CN(C)CC3)cn1 [Compound 487]                 %               87
 6  CN1CCc2c(c3ncccc3n2CCc2ccccn2)C1 [Compound 484]                 %               39
 7  CN1CCc2c(c3cc(Br)ccc3n2CC(=O)N2CCCCC2)C1 [Compound 516]                 %                6
 8  CN1CCc2c(c3cc(F)ccc3n2CCc2nc(-c3ccccc3)cs2)C1 [Compound C1-7]                 %               96
 9  CN1CCc2c(c3cc(Cl)ccc3n2CCc2noc(-c3ccccc3)n2)C1 [Compound C4-6]                 %               99
10  Cc1ccc2c(c1)c1c(n2CCc2noc(-c3ccccc3)n2)CCN(C)C1 [Compound C4-4]                 %              100
11  CN1CCc2c(c3ccncc3n2CCc2ccncc2)C1 [Compound 483]                 %                2
12  Cc1ccc(CCn2c3c(c4cc(I)ccc42)CN(C)CC3)cn1 [Compound 485]                 %               69
13  CN1CCc2c(c3ccncc3n2CCc2ccccn2)C1 [Compound 481]                 %               27
14  CN1CCc2c(c3ncccc3n2CCc2ccncc2)C1 [Compound 482]                 %               -7

====

Recorded inhibition at 1 µM values for a group of compounds are listed next.
Target: human recombinant histamine H1 receptor (Homo sapiens, UniProt P35367)
Construct: expressed in transfected cells; host or cells: CHO cells
Sequence (P35367 whole entry): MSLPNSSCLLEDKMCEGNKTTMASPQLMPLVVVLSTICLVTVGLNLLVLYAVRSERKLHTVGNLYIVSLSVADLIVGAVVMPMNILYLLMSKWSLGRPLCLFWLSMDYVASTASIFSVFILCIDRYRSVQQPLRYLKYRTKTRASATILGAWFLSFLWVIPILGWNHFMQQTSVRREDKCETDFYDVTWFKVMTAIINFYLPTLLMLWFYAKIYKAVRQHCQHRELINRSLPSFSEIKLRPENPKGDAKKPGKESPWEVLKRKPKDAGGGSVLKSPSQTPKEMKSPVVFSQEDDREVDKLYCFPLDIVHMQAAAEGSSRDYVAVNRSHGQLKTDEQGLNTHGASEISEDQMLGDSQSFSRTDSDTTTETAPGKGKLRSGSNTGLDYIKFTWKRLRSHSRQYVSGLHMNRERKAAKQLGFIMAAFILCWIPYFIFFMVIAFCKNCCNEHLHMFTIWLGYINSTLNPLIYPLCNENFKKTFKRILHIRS
Experiment: Histamine H1 radioligand binding ([3H]Pyrilamine)
Details: 1 μM compound; […] [3H]Pyrilamine; read-out: Histamine Binding H1, percent inhibition of specific binding
Protocol: To evaluate in radioligand binding assays the activity of compounds of the invention, human recombinant histamine H1 receptor expressed in Chinese hamster ovary (CHO) cells (De Backer M D et al. Biochem. Biophys. Res Comm. 197(3):1601, 1993) in a modified Tris-HCl buffer (50 mM Tris-HCl, pH 7.4, 2 mM MgCl2, 100 mM NaCl, 250 mM Sucrose) were used. […] Receptor proteins were filtered and washed, the filters were then counted to determine [^3H]pyrilamine specifically bound. […]
Readout type: inhibition at 1 µM (%)

> print(dat)
                               record.smiles  units.of.measure  recorded.result
 1  CN1CCc2c(c3cc(Cl)ccc3n2CC(=O)N2CCOCC2)C1                 %               26
 2   CCN1CCc2c(c3cc(C)ccc3n2CCc2ccc(C)cc2)C1                 %               96
 3      CCN1CCc2c(c3cc(C)ccc3n2CCc2ccccc2)C1                 %              101
 4  Cc1ccc2c(c1)c1c(n2CCc2ccc(F)cc2)CCN(C)C1                 %               98
 5  CN1Cc2c(n(CCc3noc(-c4ccc(Cl)cc4)n3)c3ccc(Cl)cc23)CC12CC2                 %               94
 6       CCN1CCc2c(c3cc(C)ccc3n2Cc2ccccc2)C1                 %               15
 7      CCN1CCc2c(c3ccccc3n2CCc2ccc(C)cc2)C1                 %               88
 8  CN1CCc2c(c3cc(Cl)ccc3n2CC(=O)N2CCSCC2)C1                 %               50
 9  Cc1ccc(CCn2c3c(c4cc(C)ccc42)CN(C)CC3)cc1                 %               97
10      Cc1ccc(Cn2c3c(c4ccccc42)CN(C)CC3)cn1                 %               15
